Molecular target: BMX (Homo sapiens (Human))
Sequence (P51813 whole entry): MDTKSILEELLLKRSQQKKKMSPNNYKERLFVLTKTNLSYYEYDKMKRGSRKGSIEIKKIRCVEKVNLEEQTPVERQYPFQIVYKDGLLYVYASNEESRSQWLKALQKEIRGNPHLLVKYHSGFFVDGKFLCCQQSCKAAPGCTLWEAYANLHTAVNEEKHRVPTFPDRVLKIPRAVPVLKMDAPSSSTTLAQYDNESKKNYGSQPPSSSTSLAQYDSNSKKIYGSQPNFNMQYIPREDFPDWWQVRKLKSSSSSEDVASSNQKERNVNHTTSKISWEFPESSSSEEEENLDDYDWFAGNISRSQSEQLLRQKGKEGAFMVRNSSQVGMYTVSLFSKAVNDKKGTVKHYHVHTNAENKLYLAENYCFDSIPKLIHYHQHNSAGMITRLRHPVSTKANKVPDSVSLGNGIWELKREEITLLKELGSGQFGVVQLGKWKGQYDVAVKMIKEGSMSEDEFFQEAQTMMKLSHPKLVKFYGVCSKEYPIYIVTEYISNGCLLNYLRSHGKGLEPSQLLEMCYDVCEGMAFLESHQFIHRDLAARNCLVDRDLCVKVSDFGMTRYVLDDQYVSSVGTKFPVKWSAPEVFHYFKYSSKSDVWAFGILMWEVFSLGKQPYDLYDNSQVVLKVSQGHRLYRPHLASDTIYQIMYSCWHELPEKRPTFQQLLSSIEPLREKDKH
Experiment: HTRF KinEASE-TK kinase assay, BMX
Type: biochemical
Details: 1 uM compound, 3 h preincubation
Experimental: Kinase activity was monitored using a HTRF® KinEASE-TK kit from Cisbio (62TK0PEC). […] BMX was purchased from Promega. 0.333 ng/ul BMX (3.03 nM) was preincubated in the absence or presence of inhibitor at room temperature for 3 hours. The reaction with substrate was then initiated by adding biotinylated substrate and ATP. […] After 60 min of incubation, the fluorescence emission was measured at 620 nm and 665 nm. […]
Reported values of remaining activity at 1 µM for individual entries

These solved cases illustrate the format of a correct answer.
So, O=S(=O)(Nc1cc2c(Nc3ccc(F)c(Cl)c3)ncnc2cc1O[C@H]1CCOC1)c1c(F)c(F)c(F)c(F)c1C(F)(F)F [Compound I-1] ? Its remaining activity at 1 µM was 50 to 90%

Entry COCCOc1ccc(Nc2ncc(F)c(Nc3cccc(NC(=O)c4c(F)c(F)c(F)c(F)c4S(C)(=O)=O)c3)n2)cc1 [Compound I-61] ; remaining activity at 1 µM = < 50%

New cases:
The reported remaining activity at 1 µM of the compound C[S@+]([O-])c1c(F)c(F)c(F)c(F)c1C(=O)N1CC(n2nc(-c3ccc(Oc4ccccc4)cc3)c3c(N)ncnc32)C1 (racemic) [Compound I-37] was < 50%
